- System: H4
- Test method notes: Cytotoxicity against human H4 cells by MTS assay
- Format: cell-based
Activity values, listed per item
Reported endpoint: Activity (µM)

>>> value_measured("CCCCCCCCCCCCO/N=C(/c1ccc(Cl)cc1)c1ccc(OC(C)(C)C(=O)O)cc1")
80
>>> value_measured("CN(C)c1cccc2c(S(=O)(=O)n3c4ccccc4c4ccc(OCC(=O)O)cc43)cccc12")
80
>>> value_measured("CC(C)(Oc1ccc(C(/N=N/c2ccc([N+](=O)[O-])cc2[N+](=O)[O-])c2ccc(Cl)cc2)cc1)C(=O)O (stereo unspecified)")
80
>>> value_measured("CC(C)(Oc1ccc(/C(=N\\OCCCCCCCCCCO/N=C(/c2ccc(Cl)cc2)c2ccc(OC(C)(C)C(=O)O)cc2)c2ccc(Cl)cc2)cc1)C(=O)O")
80
>>> value_measured("CC(C)(Oc1ccc(/C(=N\\OCCCCCCCCCO/N=C(/c2ccc(Cl)cc2)c2ccc(OC(C)(C)C(=O)O)cc2)c2ccc(Cl)cc2)cc1)C(=O)O")
80
>>> value_measured("CCCCCCCCO/N=C(/c1ccc(Cl)cc1)c1ccc(OC(C)(C)C(=O)O)cc1")
80

====

- Experimental target: Gamma-secretase
- Test method notes: Modulation of gamma-secretase in human H4 cells assessed as increase in amyloid beta38 production by LPECL assay
Reported endpoint: EC50

>>> value_measured("CC(C)(Oc1ccc(/C(=N\\OCCCCCCCCO/N=C(/c2ccc(Cl)cc2)c2ccc(OC(C)(C)C(=O)O)cc2)c2ccc(Cl)cc2)cc1)C(=O)O")
"47.6 µM"
>>> value_measured("CC(C)(Oc1ccc(C(/N=N/c2ccc([N+](=O)[O-])cc2[N+](=O)[O-])c2ccc(Cl)cc2)cc1)C(=O)O (stereo not drawn)")
"47.6 µM"
>>> value_measured("CCCCCCCCCCO/N=C(/c1ccc(Cl)cc1)c1ccc(OC(C)(C)C(=O)O)cc1")
"> 80 µM"
>>> value_measured("CC(C)(Oc1ccc(/C(=N\\OCCCCCCCCCO/N=C(/c2ccc(Cl)cc2)c2ccc(OC(C)(C)C(=O)O)cc2)c2ccc(Cl)cc2)cc1)C(=O)O")
"> 40 µM"
>>> value_measured("CCCCCCCCCCCCCCO/N=C(/c1ccc(Cl)cc1)c1ccc(OC(C)(C)C(=O)O)cc1")
"> 80 µM"
>>> value_measured("CCCCCCCC/C=C\\CCCCCCCC(=O)n1c2ccccc2c2ccc(OCC(=O)O)cc21")
"9.2 µM"
>>> value_measured("CN(C)c1cccc2c(S(=O)(=O)n3c4ccccc4c4ccc(OCC(=O)O)cc43)cccc12")
"> 40 µM"
>>> value_measured("N#Cc1ccccc1-c1ccc(Cn2c3ccccc3c3ccc(OCC(=O)O)cc32)cc1")
"> 80 µM"

====

- Experimental target: Gamma-secretase
- Test method notes: Modulation of gamma-secretase in human H4 cells assessed as inhibition of in amyloid beta42 production by LPECL assay
- Type: cell-based
Reported endpoint: IC50 (µM)

>>> value_measured("CCCCCCCCCC(=O)n1c2ccccc2c2ccc(OCC(=O)O)cc21")
22.4
>>> value_measured("CC(C)(Oc1ccc(/C(=N\\OCCCCCCCCO/N=C(/c2ccc(Cl)cc2)c2ccc(OC(C)(C)C(=O)O)cc2)c2ccc(Cl)cc2)cc1)C(=O)O")
23.7
>>> value_measured("CN(C)c1ccc(/N=N/c2ccc(S(=O)(=O)n3c4ccccc4c4ccc(OCC(=O)O)cc43)cc2)cc1")
9
>>> value_measured("CCCCCCCCCCCCCCCCCCn1c2ccccc2c2ccc(OCC(=O)O)cc21")
26
>>> value_measured("CCCCCCCCO/N=C(/c1ccc(Cl)cc1)c1ccc(OC(C)(C)C(=O)O)cc1")
36.2
>>> value_measured("CC(C)(Oc1ccc(C(/N=N/c2ccc([N+](=O)[O-])cc2[N+](=O)[O-])c2ccc(Cl)cc2)cc1)C(=O)O (centres undefined)")
17
>>> value_measured("CCCCCCCC/C=C/CCCCCCCC(=O)n1c2ccccc2c2ccc(OCC(=O)O)cc21")
13
>>> value_measured("CCCCCCCC/C=C\\CCCCCCCC(=O)n1c2ccccc2c2ccc(OCC(=O)O)cc21")
13.1
>>> value_measured("CCCCCCCCCCO/N=C(/c1ccc(Cl)cc1)c1ccc(OC(C)(C)C(=O)O)cc1")
36.1

====

- Experimental target: Gamma-secretase
- Test method notes: Modulation of gamma-secretase in human H4 cells assessed as increase in amyloid beta38 production by LPECL assay
Reported endpoint: EC50

>>> value_measured("CN(C)c1ccc(/N=N/c2ccc(S(=O)(=O)n3c4ccccc4c4ccc(OCC(=O)O)cc43)cc2)cc1")
"7.6 µM"
>>> value_measured("CCCCCCCCCCCCCCCCO/N=C(/c1ccc(Cl)cc1)c1ccc(OC(C)(C)C(=O)O)cc1")
"> 80 µM"
>>> value_measured("CCCCCCCCCO/N=C(/c1ccc(Cl)cc1)c1ccc(OC(C)(C)C(=O)O)cc1")
"> 40 µM"
>>> value_measured("CC(C)(Oc1ccc(/C(=N\\OCCCCCCCCCCO/N=C(/c2ccc(Cl)cc2)c2ccc(OC(C)(C)C(=O)O)cc2)c2ccc(Cl)cc2)cc1)C(=O)O")
"> 40 µM"

====

- Experimental target: Gamma-secretase
- Test method notes: Modulation of gamma-secretase in human H4 cells assessed as inhibition of in amyloid beta40 production by LPECL assay
- Format: cell-based
pIC50: −log10 of the molar value.
Reported endpoint: pIC50

>>> value_measured("CC(C)(Oc1ccc(/C(=N\\OCCCCCCCCCCO/N=C(/c2ccc(Cl)cc2)c2ccc(OC(C)(C)C(=O)O)cc2)c2ccc(Cl)cc2)cc1)C(=O)O")
"< 4.40"
>>> value_measured("CCCCCCCCCCCCCCCCCCn1c2ccccc2c2ccc(OCC(=O)O)cc21")
"< 4.10"
>>> value_measured("CCCCCCCC/C=C\\CCCCCCCC(=O)n1c2ccccc2c2ccc(OCC(=O)O)cc21")
"< 4.40"
>>> value_measured("CCCCCCCCCCCCCCCCO/N=C(/c1ccc(Cl)cc1)c1ccc(OC(C)(C)C(=O)O)cc1")
"< 4.10"
>>> value_measured("CCCCCCCCCC(=O)n1c2ccccc2c2ccc(OCC(=O)O)cc21")
"< 4.40"
>>> value_measured("CC(C)(Oc1ccc(C(/N=N/c2ccc([N+](=O)[O-])cc2[N+](=O)[O-])c2ccc(Cl)cc2)cc1)C(=O)O (stereo not given)")
4.43
>>> value_measured("CC(C)(Oc1ccc(/C(=N\\OCCCCCCCCO/N=C(/c2ccc(Cl)cc2)c2ccc(OC(C)(C)C(=O)O)cc2)c2ccc(Cl)cc2)cc1)C(=O)O")
4.43
>>> value_measured("CCCCCCCCCCO/N=C(/c1ccc(Cl)cc1)c1ccc(OC(C)(C)C(=O)O)cc1")
"< 4.10"
>>> value_measured("CCCCCCCCO/N=C(/c1ccc(Cl)cc1)c1ccc(OC(C)(C)C(=O)O)cc1")
4.32
>>> value_measured("CCCCCCCCCCCCCCO/N=C(/c1ccc(Cl)cc1)c1ccc(OC(C)(C)C(=O)O)cc1")
"< 4.10"

====

- Experimental target: Gamma-secretase
- Test method notes: Modulation of gamma-secretase in human H4 cells assessed as inhibition of in amyloid beta40 production by LPECL assay
- Type: cell-based
pIC50: −log10 of the molar value.
The entries below are paired with their reported pIC50.
Reported endpoint: pIC50

>>> value_measured("N#Cc1ccccc1-c1ccc(Cn2c3ccccc3c3ccc(OCC(=O)O)cc32)cc1")
"< 4.10"
>>> value_measured("O=C(O)COc1ccc2c3ccccc3n(Cc3cccc(C4(C(F)(F)F)N=N4)c3)c2c1")
"< 4.10"
>>> value_measured("CCCCCCCCCO/N=C(/c1ccc(Cl)cc1)c1ccc(OC(C)(C)C(=O)O)cc1")
"< 4.40"
>>> value_measured("CCCCCCCCCCCCO/N=C(/c1ccc(Cl)cc1)c1ccc(OC(C)(C)C(=O)O)cc1")
"< 4.40"
>>> value_measured("CN(C)c1ccc(/N=N/c2ccc(S(=O)(=O)n3c4ccccc4c4ccc(OCC(=O)O)cc43)cc2)cc1")
"< 4.10"
>>> value_measured("CN(C)c1cccc2c(S(=O)(=O)n3c4ccccc4c4ccc(OCC(=O)O)cc43)cccc12")
"< 4.40"
>>> value_measured("CCCCCCCC/C=C/CCCCCCCC(=O)n1c2ccccc2c2ccc(OCC(=O)O)cc21")
"< 4.40"
>>> value_measured("CC(C)(Oc1ccc(/C(=N\\OCCCCCCCCCO/N=C(/c2ccc(Cl)cc2)c2ccc(OC(C)(C)C(=O)O)cc2)c2ccc(Cl)cc2)cc1)C(=O)O")
"< 4.40"
>>> value_measured("CCCCCCCCCCCO/N=C(/c1ccc(Cl)cc1)c1ccc(OC(C)(C)C(=O)O)cc1")
"< 4.40"

====

Reported EC50 values follow for various molecules
- Experimental target: Gamma-secretase
- Test method notes: Modulation of gamma-secretase in human H4 cells assessed as increase in amyloid beta38 production by LPECL assay
Reported endpoint: EC50

>>> value_measured("CCCCCCCCCCCCO/N=C(/c1ccc(Cl)cc1)c1ccc(OC(C)(C)C(=O)O)cc1")
"> 40 µM"
>>> value_measured("CCCCCCCCCCCO/N=C(/c1ccc(Cl)cc1)c1ccc(OC(C)(C)C(=O)O)cc1")
"> 40 µM"
>>> value_measured("O=C(O)COc1ccc2c3ccccc3n(Cc3cccc(C4(C(F)(F)F)N=N4)c3)c2c1")
"> 80 µM"
